- protocolDescription: in vivo
- conditionDescription: cynomolgus monkey, iv, 2 mg/kg
experimentalEndpoint: clearance (mL/min/kg)

>>> assayresult("O=c1cc(-c2ccnc(NC3CCOCC3)n2)ccn1[C@H](CO)c1ccc(Cl)c(F)c1")
12

###

- protocolDescription: in vivo
- conditionDescription: rat, plasma, po, 5 mg/kg
experimentalEndpoint: AUC (µM·h)

>>> assayresult("O=c1cc(-c2ccnc(NC3CCOCC3)n2)ccn1[C@H](CO)c1ccc(Cl)c(F)c1")
2.15

###

- protocolDescription: in vivo
- conditionDescription: nude, mouse, plasma, po, 100 mg/kg
experimentalEndpoint: AUC (µM·h)

>>> assayresult("O=c1cc(-c2ccnc(NC3CCOCC3)n2)ccn1[C@H](CO)c1ccc(Cl)c(F)c1")
129
